Exercise: state measured Surface score of wooden sticks treated with paint formulation, S. chartarum for each of the compounds provided.
Test system: blue-stain fungi and molds
EXPERIMENT_NOTES: Activity against blue-stain fungi and molds on a stick test on vermiculite (paint film)
Set-up: key: 0: No growth; Trace of growth of up to 1% coverage of the test inoculated area; 2: Growth covering between 1 and 10% of the inoculated test area; Growth covering between 10 and 30% of the inoculated test area; 4: Growth covering between 30 and 70% of the inoculated test area; 5: Growth covering more than 70t of the inoculated test area
CONDITION: S. chartarum; 0.15% a.i. in paint; 12 weeks on vermiculite
Procedure: Beech sticks (73×18×2 mm) Fagus sylvatica were painted, allowed to dry, and sterilized by γ-radiation (1.2 mRad). […] The coated sticks prepared above were then dipped in a spore suspension of pure culture of each fungus. […] The surfaces of the sticks were then examined for the growth of fungus and were evaluated according to the following scoring system: 0: No growth 1: […] […]

I'd like to know its Surface score of wooden sticks treated with paint formulation, S. chartarum. The compound in question is [O-][S+]1CCON=C1c1ccc(Br)s1 (stereo not shown)
0

// next record [O-][S+]1CCON=C1c1cccs1 (stereo not shown)
0
